# Target under test: Corticosteroid-binding globulin (Homo sapiens, UniProt P08185)
# Sequence (P08185 whole entry): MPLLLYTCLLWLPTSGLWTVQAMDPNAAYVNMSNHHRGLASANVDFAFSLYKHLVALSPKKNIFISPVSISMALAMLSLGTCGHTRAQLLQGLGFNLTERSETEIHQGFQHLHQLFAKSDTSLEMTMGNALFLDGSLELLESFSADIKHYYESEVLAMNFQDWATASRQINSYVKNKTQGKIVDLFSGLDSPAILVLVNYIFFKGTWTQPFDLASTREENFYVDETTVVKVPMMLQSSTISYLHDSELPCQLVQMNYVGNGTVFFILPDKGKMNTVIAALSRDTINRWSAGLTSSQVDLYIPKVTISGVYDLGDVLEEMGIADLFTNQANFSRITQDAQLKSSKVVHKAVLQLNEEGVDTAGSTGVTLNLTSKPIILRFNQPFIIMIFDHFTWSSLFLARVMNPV
Reported metric: pKi
One number for each entry, as −log10 of the molar value.

{"Compound": "CC(=O)[C@H]1CC[C@H]2[C@@H]3CCC4=CC(=O)CC[C@]4(C)[C@H]3CC[C@]12C", "Target under test": "Corticosteroid-binding globulin (Homo sapiens, UniProt P08185)", "Result number": 7.38}
{"Compound": "CC(=O)[C@H]1CC[C@H]2[C@@H]3CC=C4C[C@@H](O)CC[C@]4(C)[C@H]3CC[C@]12C", "Target under test": "Corticosteroid-binding globulin (Homo sapiens, UniProt P08185)", "Result number": 5.23}
{"Compound": "C[C@]12CC[C@H](O)C[C@@H]1CC[C@@H]1[C@@H]2CC[C@]2(C)[C@@H](O)CC[C@@H]12", "Target under test": "Corticosteroid-binding globulin (Homo sapiens, UniProt P08185)", "Result number": 5.00}
{"Compound": "CC(=O)[C@@]1(O)CC[C@H]2[C@@H]3CC[C@@H]4C[C@H](O)CC[C@]4(C)[C@H]3CC[C@@]21C [HYDROXYPREGNENOLONE]", "Target under test": "Corticosteroid-binding globulin (Homo sapiens, UniProt P08185)", "Result number": 5.00}
{"Compound": "CC1C[C@@]2(C)C(=CC1=O)CC[C@@H]1[C@@H]2C(=O)C[C@@]2(C)[C@H]1CC[C@]2(O)C(=O)CO (stereo partly drawn)", "Target under test": "Corticosteroid-binding globulin (Homo sapiens, UniProt P08185)", "Result number": 7.69}
{"Compound": "CC(=O)C1CCC2C3C[C@H](C)C4=CC(=O)CCC4(C)C3CCC12C (stereo partly drawn)", "Target under test": "Corticosteroid-binding globulin (Homo sapiens, UniProt P08185)", "Result number": 7.12}

Go through the items and report each one's pKi.
1. C[C@]12CCC(=O)C=C1CC[C@@H]1[C@@H]2CC[C@]2(C)C(=O)CC[C@@H]12
2. C[C@]12CC[C@H]3[C@@H](CCC4=CC(=O)CC[C@@H]43)[C@@H]1CC[C@@H]2O
3. C[C@]12CC[C@@H]3c4ccc(O)cc4CC[C@H]3[C@@H]1CCC2=O
4. CC(=O)[C@H]1CC[C@H]2[C@@H]3CCC4=CC(=O)CC[C@]4(C)[C@H]3C(=O)C[C@]12C
5. C[C@]12CC[C@@H]3c4ccc(O)cc4CC[C@H]3[C@@H]1CC[C@@H]2O
6. C[C@]12CC[C@H](O)CC1=CC[C@@H]1[C@@H]2CC[C@]2(C)C(=O)CC[C@@H]12
7. C[C@]12C[C@H](O)[C@H]3[C@@H](CCC4=CC(=O)CC[C@@]43C)[C@@H]1CC[C@@H]2C(=O)CO (stereo in doubt; form 2)
8. CC(=O)[C@H]1CC[C@H]2[C@@H]3CCC4=CC(=O)CC[C@@H]4[C@H]3CC[C@]12C

1. 5.76
2. 6.14
3. 5.00
4. 6.78
5. 5.00
6. 5.00
7. 7.88
8. 6.82

Provide each entry's pKi from the list below.
1. CC(=O)OCC(=O)[C@@]1(O)CC[C@H]2[C@@H]3CCC4=CC(=O)CC[C@]4(C)[C@H]3[C@@H](O)C[C@@]21C [HYDROCORTISONE ACETATE]
2. CC(=O)[C@@]1(O)CC[C@H]2[C@@H]3CCC4=CC(=O)CC[C@]4(C)[C@H]3CC[C@@]21C [HYDROXYPROGESTERONE]
3. C[C@]12CC[C@H]3[C@@H](CCC4=CC(=O)CC[C@@]43C)[C@@H]1CC[C@@H]2C(=O)CO
4. C[C@]12CC[C@H]3[C@@H](CCC4=CC(=O)CC[C@@]43C)[C@@H]1CC[C@@H]2O

7.55
7.74
7.65
6.72
